Biological target: GCN2 (Homo sapiens, UniProt Q9P2K8)
Sequence (Q9P2K8 whole entry, species assumed): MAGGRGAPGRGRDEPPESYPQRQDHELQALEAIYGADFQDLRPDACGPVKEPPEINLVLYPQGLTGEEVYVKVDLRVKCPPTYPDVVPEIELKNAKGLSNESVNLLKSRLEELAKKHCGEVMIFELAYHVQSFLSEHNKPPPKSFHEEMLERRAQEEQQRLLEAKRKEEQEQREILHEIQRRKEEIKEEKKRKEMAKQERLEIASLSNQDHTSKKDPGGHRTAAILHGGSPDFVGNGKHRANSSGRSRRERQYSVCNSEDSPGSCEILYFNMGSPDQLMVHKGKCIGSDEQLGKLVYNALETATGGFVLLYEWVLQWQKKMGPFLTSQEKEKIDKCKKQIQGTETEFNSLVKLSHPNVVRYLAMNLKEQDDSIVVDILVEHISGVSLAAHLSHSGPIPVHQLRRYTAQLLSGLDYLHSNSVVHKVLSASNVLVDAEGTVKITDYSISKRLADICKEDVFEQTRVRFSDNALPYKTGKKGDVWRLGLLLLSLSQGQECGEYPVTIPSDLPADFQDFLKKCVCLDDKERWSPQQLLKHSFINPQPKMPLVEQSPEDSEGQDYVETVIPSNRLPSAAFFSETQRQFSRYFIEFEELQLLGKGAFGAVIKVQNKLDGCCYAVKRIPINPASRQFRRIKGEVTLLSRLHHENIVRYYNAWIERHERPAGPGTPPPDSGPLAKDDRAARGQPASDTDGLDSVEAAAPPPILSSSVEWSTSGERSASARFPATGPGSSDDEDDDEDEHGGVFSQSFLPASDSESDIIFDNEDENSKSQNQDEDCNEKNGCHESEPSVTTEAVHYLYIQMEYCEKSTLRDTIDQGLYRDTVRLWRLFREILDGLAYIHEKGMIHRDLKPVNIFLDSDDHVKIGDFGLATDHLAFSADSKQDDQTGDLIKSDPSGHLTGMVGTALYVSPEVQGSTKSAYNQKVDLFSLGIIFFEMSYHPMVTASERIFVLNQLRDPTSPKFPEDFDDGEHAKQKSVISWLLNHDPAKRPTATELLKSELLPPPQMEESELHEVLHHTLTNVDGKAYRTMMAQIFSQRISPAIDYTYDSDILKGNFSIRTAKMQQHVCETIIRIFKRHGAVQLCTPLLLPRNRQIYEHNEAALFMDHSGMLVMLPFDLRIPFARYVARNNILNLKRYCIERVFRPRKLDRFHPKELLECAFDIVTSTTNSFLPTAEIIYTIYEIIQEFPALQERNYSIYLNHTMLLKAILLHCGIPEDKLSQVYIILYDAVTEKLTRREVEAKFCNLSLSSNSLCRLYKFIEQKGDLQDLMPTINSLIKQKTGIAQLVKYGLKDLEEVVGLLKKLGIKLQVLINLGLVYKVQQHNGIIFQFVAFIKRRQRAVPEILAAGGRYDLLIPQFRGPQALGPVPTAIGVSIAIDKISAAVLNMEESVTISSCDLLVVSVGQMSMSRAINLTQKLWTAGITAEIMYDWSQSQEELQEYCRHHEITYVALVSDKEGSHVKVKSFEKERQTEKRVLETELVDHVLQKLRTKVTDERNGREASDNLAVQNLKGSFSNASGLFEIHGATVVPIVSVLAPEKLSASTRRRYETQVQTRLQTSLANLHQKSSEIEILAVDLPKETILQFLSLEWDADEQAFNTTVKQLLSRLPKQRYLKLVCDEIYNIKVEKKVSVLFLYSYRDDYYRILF
Assay: GCN2 enzyme assay (TR-FRET Lanthascreen, phosphorylation of GFP-eIF2alpha)
Assay type: biochemical
Settings: 10 μM ATP, 80 nM GFP-eIF2alpha, 30 nM GCN2, room temperature
REPORTED_PROPERTY: IC50

INSERT INTO assay_data (compound, experimental_target, reported_property, result) VALUES
  ('O=S(=O)(c1ccc(-n2nnc3cnc(Nc4cnn(CCn5cccn5)c4)nc32)cc1)N1CCCC1', 'GCN2 (Homo sapiens, UniProt Q9P2K8)', 'IC50', '< 300 nM');

Take each entry in turn and give its IC50.
1. CC(=O)Nc1ccc(-n2nnc3cnc(Nc4cnn(C[C@@H]5C[C@H]5CO)c4)nc32)cn1 (relative stereo)
2. COc1ccc(-n2nnc3cnc(Nc4cnn(N5CCOCC5=O)c4)nc32)cc1
3. CCOc1ccc(-n2nnc3cnc(Nc4cnn(CC)c4)nc32)cc1
4. CCOc1ccc(-n2nnc3cnc(Nc4cnn(CCC(C)C)c4)nc32)cc1
5. Cn1cc(Nc2ncc3nnn(-c4cnn(C)c4)c3n2)cn1
6. O=C1COCCN1n1cc(Nc2ncc3nnn(-c4ccc5cccnc5c4)c3n2)cn1
7. CCn1cc(Nc2ncc3nnn(-c4ccnc(OC)c4)c3n2)cn1

Solution:
300 to 3000 nM
< 300 nM
< 300 nM
< 300 nM
< 300 nM
300 to 3000 nM
< 300 nM

Just for reference, patent US9409914B2 is where these values come from.
